# System: HCT-8
# experimental.protocol: Cytotoxicity against human HCT8 cells at 10 uM after 72 hrs by SRB assay
# Type: functional
# setup.conditions: HCT-8, 72 h
Catalogue of inhibition at 10 µM readings, one per entry.
Write the answer as a number in %, unit excluded.

Here is how some compounds turned out for inhibition at 10 µM.
molecular.string | inhibition at 10 µM, %
CN1CCN(c2ccc3c(c2)n2nccc2n[n+]3[O-])CC1 | 3.19
[O-][n+]1nc2ccnn2c2cc(-c3cccs3)ccc21 | 10.9
CN(C)CCOc1ccc2c(c1)n1nccc1n[n+]2[O-] | -2.36

Input: # lookup: inhibition at 10 µM of CCCCCOc1ccc2c(c1)n1nccc1n[n+]2[O-]
Output: -6.17

Input: # lookup: inhibition at 10 µM of [O-][n+]1nc2ccnn2c2cc(N3CCOCC3)ccc21
Output: 3.27

Input: # lookup: inhibition at 10 µM of CCOC(=O)c1cnn(-c2ccncc2[N+](=O)[O-])c1N
Output: 24.4

* * *

Catalogue of pIC50 readings, one per entry.
# System: HCT-8
# experimental.protocol: Cytotoxicity against human HCT8 cells after 72 hrs by SRB assay
# Assay type: functional, cell-based
# setup.conditions: HCT-8, 72 h
Hey, just a heads up that pIC50 is the negative log base 10 of the concentration in molar.

compound | value.reported
CN1CCN(c2ccc3c(c2)n2ncc([N+](=O)[O-])c2n[n+]3[O-])CC1 | 4.20
CN1CCN(c2ccc3nnc4c([N+](=O)[O-])cnn4c3c2[N+](=O)[O-])CC1 | 5.22
CO[C@@]12[C@H](COC(N)=O)C3=C(C(=O)C(C)=C(N)C3=O)N1C[C@@H]1N[C@@H]12 [MITOMYCIN] | 7.08

Input: Could you share what pIC50 was measured for CCOC(=O)c1cn[nH]c1/N=[N+](/[O-])c1cc([N+](=O)[O-])ccc1O , tested on HCT-8?
Output: 4.19

Input: Could you share what pIC50 was measured for CCOC(=O)c1cnn(-c2ccncc2[N+](=O)[O-])c1N , tested on HCT-8?
Output: 4.24

Input: Could you share what pIC50 was measured for CCOC(=O)c1cnn2c1n[n+]([O-])c1cnccc12 , tested on HCT-8?
Output: 4.62

Input: Could you share what pIC50 was measured for CN1CCN(c2ccc3c(c2)n2ncc(-c4ccccc4)c2n[n+]3[O-])CC1 , tested on HCT-8?
Output: 5.00

* * *

# Tested on: HCT-8
# experimental.protocol: Cytotoxicity against human HCT8 cells at 10 uM after 72 hrs by SRB assay
# Format: functional
# setup.conditions: HCT-8, 72 h
Catalogue of inhibition at 10 µM readings, one per entry.
Write the answer as a number in %, unit excluded.

Here is how some compounds turned out for inhibition at 10 µM.
molecular.string | value.reported
O=C(O)c1cnn2c1n[n+]([O-])c1cnccc12 | 13.2
CCOC(=O)c1cnn2c1n[n+]([O-])c1cnccc12 | 12.7
[O-][n+]1nc2ccnn2c2cc(O)ccc21 | -4.21
CCOC(=O)c1cn[nH]c1/N=[N+](/[O-])c1cnccc1O | 3.87
NC(=O)c1cnn(-c2ccncc2[N+](=O)[O-])c1N | 9.72

Input: # lookup: inhibition at 10 µM of CN1CCN(c2ccc3nnc4c([N+](=O)[O-])cnn4c3c2[N+](=O)[O-])CC1
Output: 73.8

Sourced from ChEMBL document CHEMBL1142526
